# system_under_test: Melatonin receptor type 1B (Homo sapiens)
# assay_details: Agonist activity at human melatonin receptor-2 transfected in CHO cell membranes after 1 hr by GTPgammaS binding assay relative to melatonin
# Format: functional
Catalogue of Emax values
Numbers only here, please. The scale is %.

Use these answered entries as a reference point.
Req: For the compound shown here, COc1ccc2[nH]cc(Cc3nc(C)no3)c2c1 , give the reported Emax.
Resp: 48

Req: Quick check: Emax of CCNc1nnc(Cc2c[nH]c3ccc(OC)cc23)s1 ?
Resp: 35

Req: I am curious: what Emax value has been reported for COc1ccc2[nH]cc(CCc3ncc(C)o3)c2c1 ?
Resp: 32

Req: If you can, please state the reported Emax value of COc1ccc2[nH]cc(CCc3n[nH]c(=O)o3)c2c1 .
Resp: 30

More entries:
Req: State the recorded Emax for this entry: C#CCNC(=O)Cc1c[nH]c2ccc(OC)cc12
Resp: 82

Req: State the recorded Emax for this entry: COc1ccc2[nH]cc(CCN(C)C)c2c1
Resp: 28

Req: For COc1ccc2[nH]cc(Cc3nnc(C)o3)c2c1 , what is its reported Emax?
Resp: 24

Req: Look up Emax for this compound: C#CCNC(=O)CCc1c[nH]c2ccc(OC)cc12
Resp: 99

Req: Endpoint output: Emax of C=CCNC(=O)Cc1c[nH]c2ccc(OC)cc12 . Value?
Resp: 70

Req: Recorded Emax for COc1ccc2[nH]cc(CCc3n[nH]c(=S)o3)c2c1 , please?
Resp: 32

Req: Can you share its Emax? I mean this compound: COc1ccc2[nH]cc(CCc3nnco3)c2c1
Resp: 25

Req: Fill in: Emax of C=CCNC(=O)CCc1c[nH]c2ccc(OC)cc12 is ___
Resp: 88

Req: Endpoint output: Emax of COc1ccc2[nH]cc(CCc3nnc(C)o3)c2c1 . Value?
Resp: 32

----------
# system_under_test: UniProt:P49286
# Sequence (P49286 whole entry): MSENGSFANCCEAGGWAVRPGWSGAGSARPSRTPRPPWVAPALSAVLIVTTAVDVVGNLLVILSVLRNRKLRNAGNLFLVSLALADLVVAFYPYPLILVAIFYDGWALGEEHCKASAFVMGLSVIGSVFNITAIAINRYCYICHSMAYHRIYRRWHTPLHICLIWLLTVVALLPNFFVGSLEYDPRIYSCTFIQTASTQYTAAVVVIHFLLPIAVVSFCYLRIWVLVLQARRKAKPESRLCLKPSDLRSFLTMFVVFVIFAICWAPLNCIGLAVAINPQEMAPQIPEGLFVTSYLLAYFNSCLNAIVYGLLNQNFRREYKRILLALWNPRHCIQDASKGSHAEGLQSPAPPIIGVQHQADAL
# assay_details: Agonist activity at human recombinant melatonin receptor-2 expressed in CHO cells assessed as decrease of cAMP level after 10 mins by HTRF assay
# Format: functional, cell-based
experimental_readout: pEC50
Hey, just a heads up that pEC50 is the negative log base 10 of the concentration in molar.

Req: // query pEC50 value for entry COc1ccc2[nH]cc(CCc3n[nH]c(=O)o3)c2c1
Resp: 8.26

Consider the record given below.
Req: Give its pEC50 value. Item: COc1ccc2[nH]cc(CCc3nnc(C)o3)c2c1
Resp: 5.80

----------
# system_under_test: Melatonin receptor type 1B (Homo sapiens, UniProt P49286)
# assay_details: Agonist activity at human melatonin receptor-2 transfected in CHO cell membranes after 1 hr by GTPgammaS binding assay
# Type: functional
experimental_readout: pEC50
For clarity, pEC50 is expressed as the negative log10 of concentration in mol/L.

Field: example entries. Status: answers known.
Req: Reported pEC50 for COc1ccc2[nH]cc(Cc3nc(C)no3)c2c1 : what is it?
Resp: 6.53

Req: Consider the compound COc1ccc2[nH]cc(CCc3n[nH]c(=O)o3)c2c1 and give its measured pEC50.
Resp: 7.54

Query compound follows.
Req: Look at this compound and give its reported pEC50. C=CCNC(=O)CCc1c[nH]c2ccc(OC)cc12
Resp: 7.96

----------
Measured log10(solubility thermodynamic at 24 h), listed per entry.
# assay_details: Thermodynamic solubility in phosphate buffer at pH 7.4 after 24 hrs by UV spectra analysis
# Assay type: physicochemical
# protocol_conditions: read-out: Therm_solubility
On a log10 scale: recorded solubility thermodynamic at 24 h, unit µM.

Req: Which log10(solubility thermodynamic at 24 h) is reported for this compound? COc1ccc2[nH]cc(Cc3nnc(C)o3)c2c1
Resp: 2.99

Req: Given the entry CCn1c(CCc2c[nH]c3ccc(OC)cc23)n[nH]c1=S , report its measured log10(solubility thermodynamic at 24 h).
Resp: 2.14

Req: Would you kindly share the measured log10(solubility thermodynamic at 24 h) for COc1ccc2[nH]cc(CCc3n[nH]c(=S)o3)c2c1 ?
Resp: 3.54

Req: Recorded log10(solubility thermodynamic at 24 h) for COc1ccc2[nH]cc(CCc3n[nH]c(=O)o3)c2c1 , please?
Resp: 3.32

***
Req: So what does the record say about log10(solubility thermodynamic at 24 h) for COc1ccc2[nH]cc(CCc3n[nH]c(=O)n3C)c2c1 ?
Resp: 3.04

Req: So what's the measured log10(solubility thermodynamic at 24 h) for this one? COc1ccc2cccc(CCNC(C)=O)c2c1
Resp: 2.91

Req: Given the entry COc1ccc2[nH]cc(CCNC(C)=O)c2c1 , report its measured log10(solubility thermodynamic at 24 h).
Resp: 3.82

Req: So what does the record say about log10(solubility thermodynamic at 24 h) for CCNc1nnc(Cc2c[nH]c3ccc(OC)cc23)s1 ?
Resp: 3.15

Req: Requested field: log10(solubility thermodynamic at 24 h). Item: COc1ccc2[nH]cc(Cc3nc(C)no3)c2c1
Resp: 3.06

----------
Melatonin receptor type 1A (Homo sapiens): recorded pKi for assorted compounds
Sequence (P48039 whole entry): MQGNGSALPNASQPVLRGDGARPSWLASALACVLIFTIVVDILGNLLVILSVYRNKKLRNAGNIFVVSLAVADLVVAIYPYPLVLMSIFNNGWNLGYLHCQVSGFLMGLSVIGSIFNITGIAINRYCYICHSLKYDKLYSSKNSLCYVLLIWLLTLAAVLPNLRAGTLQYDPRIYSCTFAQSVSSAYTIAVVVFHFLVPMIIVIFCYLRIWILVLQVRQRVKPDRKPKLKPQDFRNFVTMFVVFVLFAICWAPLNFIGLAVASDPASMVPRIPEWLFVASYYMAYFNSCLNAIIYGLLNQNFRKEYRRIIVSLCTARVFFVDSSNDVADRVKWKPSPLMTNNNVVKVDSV
Give only the number. pKi is defined as minus log10 of concentration in molar units.

// known answers, use as guide
Req: Entry under review: COc1ccc2[nH]cc(Cc3ncc(C)o3)c2c1 . Reported pKi?
Resp: 6.55

Req: Find the recorded pKi belonging to COc1ccc2[nH]cc(CCN(C)C)c2c1 and report it.
Resp: 6.68

API: the following record is the query input.
Req: May I ask what pKi has been recorded for C=CCNC(=O)Cc1c[nH]c2ccc(OC)cc12 ?
Resp: 7.77

----------
# Species on record: Homo sapiens
# assay_details: Selectivity ratio of Ki for human melatonin receptor-1 to Ki for human melatonin receptor-2
// assign Y if Ratio Ki falls strictly below 9, else N (ties count as N)

Worked examples follow.
Req: In plain terms, does C#CCNC(=O)Cc1c[nH]c2ccc(OC)cc12 come in under 9 for Ratio Ki?
Resp: Y

Req: Determine whether this molecule shows Ratio Ki lower than 9 (ties excluded): COc1ccc2[nH]cc(CCN(C)C)c2c1
Resp: N

Req: In plain terms, does COc1ccc2[nH]cc(Cc3nc(C)no3)c2c1 come in under 9 for Ratio Ki?
Resp: Y

Req: hey, is Ratio Ki for COc1ccc2[nH]cc(CCc3nnco3)c2c1 lower than 9 or not?
Resp: Y

Req: Just wondering, is Ratio Ki of C#CCNC(=O)CCc1c[nH]c2ccc(OC)cc12 below 9?
Resp: Y

Req: Determine whether this molecule shows Ratio Ki lower than 9 (ties excluded): COc1ccc2[nH]cc(CCc3n[nH]c(=O)o3)c2c1
Resp: N

Req: Record C=CCNC(=O)Cc1c[nH]c2ccc(OC)cc12 : is its Ratio Ki strictly below 9?
Resp: Y

Req: Confirm or reject: Ratio Ki of COc1ccc2[nH]cc(CCc3nnc(C)o3)c2c1 lies strictly below 9
Resp: Y

Req: For C=CCNC(=O)CCc1c[nH]c2ccc(OC)cc12 , is the recorded Ratio Ki below the cut-off of 9?
Resp: Y

Req: Please state whether Ratio Ki is below 9 for COc1ccc2[nH]cc(Cc3nnc(C)o3)c2c1
Resp: N

More entries:
Req: Please determine if CCNc1nnc(Cc2c[nH]c3ccc(OC)cc23)s1 is below 9 in terms of Ratio Ki.
Resp: N

----------
# assay_details: Thermodynamic solubility in buffer at pH 5.5 after 24 hrs by UV spectra analysis
# Type: physicochemical
# protocol_conditions: read-out: Therm_solubility
Examples of compounds with documented solubility thermodynamic at 24 h follow.
State just the number; it will be interpreted in µM.

Solved cases below.
Req: Quick one: solubility thermodynamic at 24 h of CCn1c(CCc2c[nH]c3ccc(OC)cc23)n[nH]c1=S ?
Resp: 131

Req: State the recorded solubility thermodynamic at 24 h for this entry: COc1ccc2[nH]cc(CCc3n[nH]c(=S)o3)c2c1
Resp: 907

Req: Can you share its solubility thermodynamic at 24 h? I mean this compound: CCNc1nnc(Cc2c[nH]c3ccc(OC)cc23)s1
Resp: 1720

Req: Could you share which solubility thermodynamic at 24 h value was measured for COc1ccc2[nH]cc(CCc3n[nH]c(=O)n3C)c2c1 ?
Resp: 860

Continuing:
Req: Bench note: what solubility thermodynamic at 24 h did COc1ccc2[nH]cc(CCc3n[nH]c(=O)o3)c2c1 show?
Resp: 1410
